Read-out: Tumor necrosis factor (Homo sapiens) (UniProt P01375)
Sequence (P01375 whole entry, looked up): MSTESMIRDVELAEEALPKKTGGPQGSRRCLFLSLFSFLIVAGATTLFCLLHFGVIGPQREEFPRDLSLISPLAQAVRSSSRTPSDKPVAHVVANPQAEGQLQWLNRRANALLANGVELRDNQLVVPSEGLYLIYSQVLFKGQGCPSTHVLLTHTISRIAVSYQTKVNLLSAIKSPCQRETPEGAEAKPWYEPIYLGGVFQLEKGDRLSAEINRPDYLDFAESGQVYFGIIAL
Experiment: BSK_LPS_TNFa: BioMAP Diversity Plus: LPS Assay for Tumour Necrosis Factor alpha (TNFa) Biomarker Activity (AID 2283085)
Details: primary human HUVEC with PBMC; actives raise or lower the signal
Procedure: BSK_LPS is a cell-based, multiplexed-readout assay that uses umbilical vein endothelium and peripheral blood mononuclear cells, a human vascular primary cell co-culture, with measurements taken at 24 hours after chemical dosing in a 96-well plate.BSK_LPS_TNFa is an assay component measured in the BSK_LPS assay. It measures TNF-a antibody related to regulation of gene expression using ELISA technology.Data from the assay component BSK_LPS_TNFa was analyzed into 1 assay endpoint. […]
Calls of active or inactive are those of the source. The calls were made as follows: active = hit-call score of the fitted dose curve at least 0.9, where 1 is the maximum; inactive = score below 0.9.
Can you answer with just one of these options? true (1) = active, false (0) = inactive

Use these answered entries as a reference point.
compound=Cc1cc(Cl)ccc1N class_label="false (0)"
compound="C=CC(Cl)CCl (configuration not stated)" class_label="false (0)"

Please state the recorded outcome for this compound: "C[C@]12CC[C@@H](O)C[C@@H]1CC[C@@H]1[C@@H]2CC[C@]2(C)C(=O)CC[C@@H]12" false (0)

Now consider CC(C=O)Cc1ccc2c(c1)OCO2 (configuration not stated) and answer again. false (0)

Now consider CCOC(=O)C(SP(=S)(OC)OC)c1ccccc1 (configuration not stated) and answer again. false (0)

Now consider CCC(C)(C#N)N=NC(C)(C#N)CC (configuration not stated) and answer again. false (0)

Now consider "O=C(N[C@H]1CN2CCC1CC2)c1ccc2c(c1)OCCO2" and answer again. false (0)

Now consider O=c1oc2ccccc2c(O)c1C(CC(O)c1ccc(-c2ccc(Br)cc2)cc1)c1ccccc1 (configuration not stated) and answer again. false (0)

Now consider "CCCCCCCCCCCCN(C)C" and answer again. false (0)

---

Read-out: Interleukin 6 (IL6), IL6 (gene 3569)
Assay: BSK_BT_xIL6: BioMAP Diversity Plus: BT Assay for Interleukin 6 (IL6) Biomarker Activity (AID 2284228)
Conditions: primary human B cells with PBMC
Active and inactive are the calls of the source. The calls were made as follows: active = hit-call score of the fitted dose curve at least 0.9, where 1 is the maximum; inactive = score below 0.9.
Can you answer with just one of these options? active, inactive

Use these answered entries as a reference point.
compound=NC(=O)CCl class_label=inactive
compound=O=C1C=CC(=O)c2ccccc21 class_label=active
compound="CC(C=O)Cc1ccc2c(c1)OCO2 (centres undefined)" class_label=inactive
compound=O=[N+]([O-])c1cccc2ccccc12 class_label=inactive
compound="OC(Cc1ccccc1Cl)(Cn1cncn1)C1(Cl)CC1 (centres undefined)" class_label=inactive
compound="CC(C)(COCC1CO1)COCC1CO1 (centres undefined)" class_label=inactive

Please state the recorded outcome for this compound: "CCOC(=O)CC(=O)CCl" active

Now consider OC(Cc1ccccc1Cl)(Cn1[nH]cnc1=S)C1(Cl)CC1 (centres undefined) and answer again. inactive

Now consider "CCCCCCCCCCCCN(C)C" and answer again. inactive

Now consider "O=S(=O)(C(Cl)(Cl)Cl)C(Cl)(Cl)Cl" and answer again. active

Now consider "CCOP(=O)(OCC)OC(=CCl)c1ccc(Cl)cc1Cl" and answer again. active

Now consider CCOC(=O)C(SP(=S)(OC)OC)c1ccccc1 (centres undefined) and answer again. inactive

Now consider "CCOP(=O)(OCC)SCCSCC" and answer again. inactive

Now consider "Cc1cc(C(C)(C)c2ccc(O)c(C)c2)ccc1O" and answer again. inactive
